- TESTED SYSTEM: protein-protein interaction between Kras and SOS1 (biotin-tagged human Kras loaded with GDP, His-tagged human SOS1) (Homo sapiens (Human), UniProt P01116, G12D)
- ASSAY NOTES: Protein-protein interaction inhibition between Kras and SOS1 (KrasG12D-SOS PPI) using AlphaScreen
- Assay type: biochemical
- ASSAY SETUP: AlphaScreen; biotin-tagged human Kras loaded with GDP, His-tagged human SOS1; read-out: KRAS G12D-SOS PPI IC50
Numbered stars: 1 amine (or outer) side, 2 acyl side, 3 side chain; on linkers, the order of the positions; unused ones are H or OH. Bridge positions count the residues as written; N and C are the ends. Square brackets hold non-standard residues; d marks the D form. Peptide text beside a SMILES is read from it. * marks the point of attachment. hPhe(3-F,4-CF3) = N[C@@H](CCc1ccc(C(F)(F)F)c(F)c1)C(=O)O; NMePhe(4-Cl) = CN[C@@H](Cc1ccc(Cl)cc1)C(=O)O; X10 = C#Cc1cccc(C[C@H](N[*:1])C(=O)[*:2])c1; NMeCha = CN[C@@H](CC1CCCCC1)C(=O)O; NMeI = CC[C@H](C)[C@H](NC)C(=O)O; NMeD = CN[C@@H](CC(=O)O)C(=O)O; NMeL = CN[C@@H](CC(C)C)C(=O)O; NMeA = CN[C@@H](C)C(=O)O; NMeAib = CNC(C)(C)C(=O)O; Nle = CCCC[C@H](N)C(=O)O; Piperidide = C1CCN(*)CC1; Pyrrolidide = C1CCN(*)C1; Ac5c = NC1(C(=O)O)CCCC1; Aze = O=C(O)[C@@H]1CCN1; Sar = CNCC(=O)O
VALUE KIND: pIC50
Scale note: pIC50 = -log10(concentration in M).

INSERT INTO results (compound, assay_value) VALUES
  ('C#Cc1cccc(C[C@@H]2NC(=O)CN(C)C(=O)[C@H](Cc3ccc(Cl)cc3)N(C)C(=O)CN(C)C(=O)CN(C)C(=O)[C@H]([C@@H](C)CC)NC(=O)[C@H](CC(C)C)N(C)C(=O)C[C@@H](C(=O)N3CCCCC3)N(C)C(=O)[C@H](CC(C)C)NC(=O)C(C)(C)N(C)C(=O)[C@H](CCCC)NC2=O)c1 [Compound 2142] ([NMeL]I[Sar][Sar][NMePhe(4-Cl)][Sar][X10][Nle][NMeAib]L[NMeD]-Piperidide; lactam N-11)', 7.36);

Query pIC50 for CC[C@H](C)[C@@H]1NC(=O)[C@H](CC(C)C)N(C)C(=O)C[C@@H](C(=O)N2CCCC2)N(C)C(=O)[C@H]([C@@H](C)CC)N(C)C(=O)C2(CCCC2)NC(=O)[C@@H]2CCCN2C(=O)[C@H](CCc2ccc(C(F)(F)F)c(F)c2)NC(=O)CN(C)C(=O)[C@H](CC2CCCCC2)N(C)C(=O)[C@@H]2CCN2C(=O)[C@H](C)N(C)C1=O [Compound 868] ([NMeL]I[NMeA][Aze][NMeCha][Sar][hPhe(3-F,4-CF3)]P[Ac5c][NMeI][NMeD]-Pyrrolidide; lactam N-11)
8.54

---

Examples of molecules with documented IC50 follow.
- TESTED SYSTEM: protein-protein interaction between Kras and SOS1 (biotin-tagged human Kras loaded with GDP, His-tagged human SOS1) (Homo sapiens (Human), UniProt P01116, G12D)
- ASSAY NOTES: Protein-protein interaction inhibition between Kras and SOS1 (KrasG12D-SOS PPI) using AlphaScreen;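 note: kras produced in E. coli, Ni-coupled donor beads and streptavidin acceptor beads, excitation 680 nm with emission detected at 520–620 nm via singlet oxygen transfer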
- Format: biochemical
- ASSAY SETUP: AlphaScreen; biotin-tagged human Kras loaded with GDP, His-tagged human SOS1; read-out: KRAS G12D-SOS PPI IC50
Bridge positions count the residues as written; N and C are the ends. Square brackets hold non-standard residues; d marks the D form. Peptide text beside a SMILES is read from it. * marks the point of attachment. hPhe(3-Cl-4-CF3) = N[C@@H](CCc1ccc(C(F)(F)F)c(Cl)c1)C(=O)O; NMeAla(cPent) = CN[C@@H](CC1CCCC1)C(=O)O; NMeGly(cPent) = CN[C@H](C(=O)O)C1CCCC1; NMeAhp(2) = CCCCC[C@H](NC)C(=O)O; NMeD = CN[C@@H](CC(=O)O)C(=O)O; NMeL = CN[C@@H](CC(C)C)C(=O)O; NMeV = CN[C@H](C(=O)O)C(C)C; Morpholide = C1CN(*)CCO1; NMeA = CN[C@@H](C)C(=O)O; Piperidide = C1CCN(*)CC1; Ac5c = NC1(C(=O)O)CCCC1; Aze = O=C(O)[C@@H]1CCN1; Sar = CNCC(=O)O
Number in nM, nothing else.

INSERT INTO assay_data (molecule, unit_abbrev, assay_value) VALUES
  ('CCCCC[C@H]1C(=O)N(C)CC(=O)N[C@@H](CCc2ccc(C(F)(F)F)c(Cl)c2)C(=O)N2CCC[C@H]2C(=O)NC2(CCCC2)C(=O)N(C)[C@@H](C(C)C)C(=O)N(C)[C@H](C(=O)N2CCCCC2)CC(=O)N(C)[C@@H](CC(C)C)C(=O)N[C@@H]([C@@H](C)CC)C(=O)N(C)[C@@H](C)C(=O)N2CC[C@H]2C(=O)N1C [Compound 1854] ([NMeL]I[NMeA][Aze][NMeAhp(2)][Sar][hPhe(3-Cl-4-CF3)]P[Ac5c][NMeV][NMeD]-Piperidide; lactam N-11)', 'nM', 5.5);

Shifting focus to the molecule that follows.
Name the recorded IC50 of the molecule listed here: CC[C@H](C)[C@@H]1NC(=O)[C@H](CC2CCCC2)N(C)C(=O)C[C@@H](C(=O)N2CCOCC2)N(C)C(=O)[C@H](C2CCCC2)N(C)C(=O)C2(CCCC2)NC(=O)[C@@H]2CCCN2C(=O)[C@H](CCc2ccc(C(F)(F)F)c(Cl)c2)NC(=O)CN(C)C(=O)[C@H](C2CCCC2)N(C)C(=O)[C@@H]2CCN2C(=O)[C@H](C)NC1=O [Compound 1145] ([NMeAla(cPent)]IA[Aze][NMeGly(cPent)][Sar][hPhe(3-Cl-4-CF3)]P[Ac5c][NMeGly(cPent)][NMeD]-Morpholide; lactam N-11)
1.1
